- Target Entity: human NPY Y5 receptor (Homo sapiens, UniProt Q15761)
- Sequence (Q15761 whole entry): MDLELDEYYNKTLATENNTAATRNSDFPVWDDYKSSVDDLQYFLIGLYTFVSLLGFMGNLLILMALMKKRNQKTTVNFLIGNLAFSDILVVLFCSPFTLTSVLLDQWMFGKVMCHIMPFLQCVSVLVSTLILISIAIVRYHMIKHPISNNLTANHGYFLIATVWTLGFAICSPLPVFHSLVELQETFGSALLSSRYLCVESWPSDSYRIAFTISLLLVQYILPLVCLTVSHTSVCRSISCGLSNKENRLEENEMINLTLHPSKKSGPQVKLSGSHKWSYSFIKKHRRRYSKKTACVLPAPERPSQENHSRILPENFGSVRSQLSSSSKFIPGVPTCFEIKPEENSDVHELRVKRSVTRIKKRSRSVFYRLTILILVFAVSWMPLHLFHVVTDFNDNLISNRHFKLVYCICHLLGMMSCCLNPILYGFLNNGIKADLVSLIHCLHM
Outcome Measure: pIC50
Quick note: pIC50 values are minus log10 of concentrations in mol/L.

Recorded pIC50 for COc1ccc(-c2cc(NC(=O)N3CCN(c4cccc(Cl)c4)CC3)[nH]n2)cc1 with human NPY Y5 receptor (Homo sapiens, UniProt Q15761), please?
7.57
